Provenance of the data: ChEMBL document CHEMBL3868590

experiment: Cytotoxicity against CD14+ monocytes in human PBMC population assessed as reduction in viable cells measured after 24 hrs by Hoechst-33258 staining-based FACS analysis; type: toxicity, cell-based, Monocyte
endpoint: EC50 at 24 h (µM)

>>> measured_result("CCCCCC(=O)C1=C(O)C(=O)c2c(O)c(O)cc(O)c2C1=O")
15.1

====

assay: Cytotoxicity against human Jurkat cells assessed as reduction in viable cells measured after 24 hrs by Hoechst-33258 staining-based FACS analysis; format: functional, cell-based
endpoint: EC50 (µM)

>>> measured_result("CCCCCC(=O)C1=C(O)C(=O)c2c(O)c(O)cc(O)c2C1=O")
7.41
